The values you see were collected from patent US8822464B2.

target: human recombinant mGluR5 (Homo sapiens, UniProt P41594); construct: cultured with tetracycline, hygromycin and geneticin; tetracycline withdrawn 3-7 days before the assay; assay: positive modulation of mGluR5, calcium based FLIPR assay in HEK 293 cells; details: HEK 293 cell line expressing human recombinant mGluR5; peak height of Ca release fluorescence signal after glutamate at approximately 5% basal stimulation; nonlinear regression
Sequence (P41594 21-1212): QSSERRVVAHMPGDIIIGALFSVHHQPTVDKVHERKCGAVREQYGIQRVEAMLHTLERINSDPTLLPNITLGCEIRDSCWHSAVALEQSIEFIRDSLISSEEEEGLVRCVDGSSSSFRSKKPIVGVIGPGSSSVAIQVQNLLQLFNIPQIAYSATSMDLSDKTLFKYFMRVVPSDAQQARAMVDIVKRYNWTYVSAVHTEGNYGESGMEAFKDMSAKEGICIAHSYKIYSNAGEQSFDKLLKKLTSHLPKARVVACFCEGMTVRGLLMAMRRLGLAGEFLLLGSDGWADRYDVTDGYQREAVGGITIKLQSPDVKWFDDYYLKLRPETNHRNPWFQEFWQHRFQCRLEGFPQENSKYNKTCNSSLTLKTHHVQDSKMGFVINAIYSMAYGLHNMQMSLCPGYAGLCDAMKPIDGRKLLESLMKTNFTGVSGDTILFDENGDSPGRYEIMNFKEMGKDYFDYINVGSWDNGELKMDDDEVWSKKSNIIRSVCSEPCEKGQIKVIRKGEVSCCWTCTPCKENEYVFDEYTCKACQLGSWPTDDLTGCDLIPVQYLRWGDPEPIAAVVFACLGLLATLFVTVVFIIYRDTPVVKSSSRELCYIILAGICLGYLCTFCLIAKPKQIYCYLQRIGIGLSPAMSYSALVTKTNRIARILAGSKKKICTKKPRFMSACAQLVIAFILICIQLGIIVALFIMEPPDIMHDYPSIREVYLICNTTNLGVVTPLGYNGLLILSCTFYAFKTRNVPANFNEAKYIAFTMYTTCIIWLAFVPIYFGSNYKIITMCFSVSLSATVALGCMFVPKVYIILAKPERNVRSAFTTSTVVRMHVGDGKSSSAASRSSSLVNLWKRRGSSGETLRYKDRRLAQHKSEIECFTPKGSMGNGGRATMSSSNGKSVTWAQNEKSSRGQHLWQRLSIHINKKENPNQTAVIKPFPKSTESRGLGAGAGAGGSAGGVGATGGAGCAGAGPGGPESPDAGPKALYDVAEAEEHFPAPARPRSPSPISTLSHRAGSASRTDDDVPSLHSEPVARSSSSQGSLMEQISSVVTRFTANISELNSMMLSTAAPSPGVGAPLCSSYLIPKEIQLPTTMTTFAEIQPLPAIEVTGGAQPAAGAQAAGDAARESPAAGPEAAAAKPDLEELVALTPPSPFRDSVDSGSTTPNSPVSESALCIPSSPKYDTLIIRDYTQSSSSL
quantity: EC50 (nM)
Numbers only, in nM.

* COc1ccc(-c2cc(-c3ccc(OC)cc3)n(CC(=O)N3CCN(c4ncccn4)CC3)n2)cc1 | 31
* COCCCc1cc(-c2ccc(F)c(C)c2)nn1CC(=O)N1CCN(c2ncc(OC)cn2)CC1 | 120
* Cc1cccc(-c2cc(-c3ccccc3)nn2CC(=O)N2CCN(c3ncccn3)CC2)c1 | 42
* CCc1cc(-c2cccc(C#N)c2)nn1CC(=O)N1CCN(c2ccccn2)CC1 | 297
* Cc1cc(-c2cc(-c3ccccc3)n(CC(=O)N3CCN(c4ccccn4)CC3)n2)ncc1F | 79

Please state EC50 for every compound in the list that follows.
1. COCCCc1cc(-c2ccc(F)c(C)c2)nn1CC(=O)N1CCN(c2cc(OC)ncn2)CC1
2. COc1cnc(N2CCN(C(=O)Cn3nc(-c4ccc(F)c(C)c4)cc3C)CC2)nc1
3. Cc1cc(-c2cc(-c3ccccc3)nn2CC(=O)N2CCN(c3ncccn3)CC2)ccc1F
4. Cc1ccc(-c2cc(-c3ccccc3)nn2CC(=O)N2CCN(c3ncccn3)CC2)nc1C

1: 137; 2: 36; 3: 44; 4: 652

Please state EC50 for every compound in the list that follows.
1. COc1cnc(N2CCN(C(=O)Cn3nc(-c4cccc(Cl)c4)cc3-c3ccccc3)CC2)nc1
2. COc1cc(-c2cc(-c3ccccc3)n(CC(=O)N3CCN(c4ncccn4)CC3)n2)ccc1F
3. Cc1ccnc(N2CCN(C(=O)Cn3nc(-c4ccc(F)c(C)c4)cc3C(C)C)CC2)c1
4. Cc1ccc(-c2cc(-c3ccccc3)n(CC(=O)N3CCN(c4ncccn4)CC3)n2)nc1

[19, 5, 79, 24]
